- Tested on: SW480 colon cancer cells
- EXPERIMENT NOTES: Cell viability assay (CellTiter-Blue) in SW480 colon cancer cells
- Type: cell-based
- EXPERIMENTAL CONTEXT: Homo sapiens, 96 h, 10 μM, four days, CellTiter-Blue, read-out: percent inhibition at 10 μM (given for EC50 of >10 μM)
Class (required): determined from inhibition at 10 µM; valid ranges are LOW: < 0.9%; MEDIUM: ≥ 0.9% and < 3%; HIGH: ≥ 3%

1. Cc1ccc(-c2cncc3[nH]c(-c4n[nH]c5ccc(-c6cncc(NC(=O)C(C)C)c6)nc45)nc23)s1: MEDIUM
2. CCCCC(=O)Nc1cncc(-c2ccc3[nH]nc(-c4nc5c(-c6cc(F)cc(NCCN(C)C)c6)cncc5[nH]4)c3n2)c1: MEDIUM
3. COc1cccc(-c2cncc3[nH]c(-c4n[nH]c5ccc(-c6cncc(NC(=O)Cc7ccccc7)c6)nc45)nc23)c1: MEDIUM
4. Cc1cn(-c2cncc3[nH]c(-c4n[nH]c5ccc(-c6cncc(NC(=O)CC(C)C)c6)nc45)nc23)cn1: HIGH
5. CS(=O)(=O)NCc1cc(F)cc(-c2cncc3[nH]c(-c4n[nH]c5ccc(-c6cncc(NC(=O)c7ccccc7)c6)nc45)nc23)c1: MEDIUM

State the band of CCCC(=O)Nc1cncc(-c2ccc3[nH]nc(-c4nc5c(-c6cc(F)cc(CNS(C)(=O)=O)c6)cncc5[nH]4)c3n2)c1 MEDIUM

Hello team, could you let me know which band the following compound falls into: Fc1cccc(-c2cncc3[nH]c(-c4n[nH]c5ccc(-c6cn[nH]c6)nc45)nc23)c1 HIGH
